pEC50 by entry:
# SYSTEM: 5-hydroxytryptamine receptor 1A (Homo sapiens)
# Sequence (P08908 whole entry): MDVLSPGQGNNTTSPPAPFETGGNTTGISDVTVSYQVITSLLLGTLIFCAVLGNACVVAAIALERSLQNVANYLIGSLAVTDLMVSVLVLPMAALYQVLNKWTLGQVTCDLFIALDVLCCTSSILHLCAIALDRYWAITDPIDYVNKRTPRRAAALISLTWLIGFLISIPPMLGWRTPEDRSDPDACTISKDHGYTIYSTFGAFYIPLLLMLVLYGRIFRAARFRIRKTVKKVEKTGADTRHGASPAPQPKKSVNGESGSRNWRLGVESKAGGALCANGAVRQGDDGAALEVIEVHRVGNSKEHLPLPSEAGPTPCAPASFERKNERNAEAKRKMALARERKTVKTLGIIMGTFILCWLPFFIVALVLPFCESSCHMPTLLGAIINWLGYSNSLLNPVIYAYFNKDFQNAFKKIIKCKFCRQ
# METHOD_NOTES: Intrinsic activity assessed by stimulation of [35S]GTP-gamma-S binding in CHO cells expressing 5HT1A receptor
pEC50: −log10 of the molar value.
MEASURED_PROPERTY: pEC50

compound="CC(C)N1CC(CNCCc2c[nH]c3ccc(F)cc23)Oc2ccccc21 (centres undefined)" system="5-hydroxytryptamine receptor 1A (Homo sapiens)" measured_property=pEC50 experimental_value=6.72
compound="CC(C)N1CC(CNCCCc2c[nH]c3ccccc23)Oc2ccccc21 (centres undefined)" system="5-hydroxytryptamine receptor 1A (Homo sapiens)" measured_property=pEC50 experimental_value=6.48
compound="CCN1CC(CN2CC=C(c3c[nH]c4ccc(F)cc34)CC2)Oc2c(OC)cccc21 (centres undefined)" system="5-hydroxytryptamine receptor 1A (Homo sapiens)" measured_property=pEC50 experimental_value=6.38
compound="CCCN1CC(CNCCc2c[nH]c3ccccc23)Oc2ccccc21 (centres undefined)" system="5-hydroxytryptamine receptor 1A (Homo sapiens)" measured_property=pEC50 experimental_value=6.71
compound="CN1CC(CNCCc2c[nH]c3ccc(F)cc23)Oc2ccccc21 (centres undefined)" system="5-hydroxytryptamine receptor 1A (Homo sapiens)" measured_property=pEC50 experimental_value=6.78
compound="Fc1ccc2[nH]cc(CCNCC3CNc4ccccc4O3)c2c1 (centres undefined)" system="5-hydroxytryptamine receptor 1A (Homo sapiens)" measured_property=pEC50 experimental_value=6.81
compound="CCN1CC(CNCCc2c[nH]c3ccc(F)cc23)Oc2ccccc21 (centres undefined)" system="5-hydroxytryptamine receptor 1A (Homo sapiens)" measured_property=pEC50 experimental_value=7.05
compound="COc1cccc2c1OC(CN1CC=C(c3c[nH]c4ccc(F)cc34)CC1)CN2C (centres undefined)" system="5-hydroxytryptamine receptor 1A (Homo sapiens)" measured_property=pEC50 experimental_value=6.72
compound="C1=C(c2c[nH]c3ccccc23)CCN(CC2CNc3ccccc3O2)C1 (centres undefined)" system="5-hydroxytryptamine receptor 1A (Homo sapiens)" measured_property=pEC50 experimental_value=5.95
compound="COc1ccc2c(c1)OC(CNCCc1c[nH]c3ccc(F)cc13)CN2 (centres undefined)" system="5-hydroxytryptamine receptor 1A (Homo sapiens)" measured_property=pEC50 experimental_value=6.74
compound="CN1CC(CNCCc2c[nH]c3ccc(F)cc23)Oc2cc(Cl)ccc21 (centres undefined)" system="5-hydroxytryptamine receptor 1A (Homo sapiens)" measured_property=pEC50 experimental_value=6.47
compound="c1ccc(CN2CC(CNCCCc3c[nH]c4ccccc34)Oc3ccccc32)cc1 (centres undefined)" system="5-hydroxytryptamine receptor 1A (Homo sapiens)" measured_property=pEC50 experimental_value=5.86
compound="COc1cccc2c1OC(CN1CC=C(c3c[nH]c4ccc(F)cc34)CC1)CN2 (centres undefined)" system="5-hydroxytryptamine receptor 1A (Homo sapiens)" measured_property=pEC50 experimental_value=6.41
compound="CC(C)CN1CC(CNCCc2c[nH]c3ccc(F)cc23)Oc2ccccc21 (centres undefined)" system="5-hydroxytryptamine receptor 1A (Homo sapiens)" measured_property=pEC50 experimental_value=6.48
